- target-entity: full-length beta-Catenin (Uniprot ID P35222) (Homo sapiens (Human)) (UniProt P35222)
- assay-remarks: cell-based or functional assay
Starred links: 1 amine or outer side, 2 acyl side, 3 side chain; linkers in the order of their positions; H or OH if unused. Positions of bridges follow the written chain, without caps; N, C: chain ends. Non-standard residues stand in square brackets, D forms with d. Primed or numbered codes have the meaning given here. PyrS2″ = (S)-3-amino-1-((pent-4-en-1-yloxy)carbonyl)pyrrolidine-3-carboxylic acid (stapling residue), C=CCCCOC(=O)N1CC[C@@](N[*:1])(C(=O)[*:2])C1; B5(16) = 2-amino-2-(pent-4-en-1-yl)hept-6-enoic acid = 2,2-bis(4-pentenyl)glycine (stitching residue), C=CCCCC(CCCC=C)(N[*:1])C(=O)[*:2]; B5(5) = 2,2-bis(4-pentenyl)glycine, 2-amino-2-(pent-4-en-1-yl)hept-6-enoic acid (stitching residue), C=CCCCC(CCCC=C)(N[*:1])C(=O)[*:2]; PyrS2 = (S)-3-amino-1-((pent-4-en-1-yloxy)carbonyl)pyrrolidine-3-carboxylic acid, C=CCCCOC(=O)N1CC[C@@](N[*:1])(C(=O)[*:2])C1; Phe(3-COOH) = N[C@@H](Cc1cccc(C(=O)O)c1)C(=O)O; Phe(2-CF3) = N[C@@H](Cc1ccccc1C(F)(F)F)C(=O)O; Phe(2-Cl) = N[C@@H](Cc1ccccc1Cl)C(=O)O; Bta = N[C@@H](Cc1csc2ccccc12)C(=O)O; αAllylPro = C=CC[C@@]1(C(=O)O)CCCN1; tBuAla = CC(C)(C)C[C@H](N)C(=O)O; Cha = N[C@@H](CC1CCCCC1)C(=O)O; Nle = CCCC[C@H](N)C(=O)O
quantity-measured: DLD1 4% Abs IC50 (µM)

binder	DLD1 4% Abs IC50 (µM)
Ac-[αAllylPro]D[tBuAla][B5(5)]D[Phe(3-COOH)]AAFL[PyrS2″][Phe(2-CF3)][Bta]QLL-NH2 (staple 1-4, 4-11) [I-2380]	1.5
Ac-[αAllylPro]D[tBuAla][B5(5)]D[Phe(3-COOH)]AAFL[PyrS2][Phe(2-CF3)][Bta]QLN-NH2 (staple 1-4, 4-11) [I-2390]	1.4
Ac-[αAllylPro]D[Cha][B5(16)]DDAAFS[PyrS2″][Phe(2-Cl)][Bta]Q-NH2 (staple 1-4, 4-11) [I-1044]	14.5

A. Ac-[αAllylPro]D[tBuAla][B5(5)]D[Phe(3-COOH)]AAFL[PyrS2][Phe(2-CF3)][Bta]QL[Nle]-NH2 (staple 1-4, 4-11) [I-2391]
B. Ac-[αAllylPro]D[tBuAla][B5(5)]D[Phe(3-COOH)]AAFL[PyrS2″][Phe(2-CF3)][Bta]QLS-NH2 (staple 1-4, 4-11) [I-2384]
Lower value of DLD1 4% Abs IC50 belongs to which: A or B ? Pick one and reply with its label.
A
(A: 0.7 µM, B: 1.1 µM)
